Tested on: JEG-3
Assay: Primary qHTS to identify gynecologic anti-cancer compounds using libraries of approved drugs and bioactive compounds (AID 1345084); also: % is scaled to controls: 0 for no effect and ±100 for the full control effect; nearly all actives have a fitted effect of over 55% in size
Details: Gynecologic cancer cell panel viability, ATPlite luminescence, 48 h; series mostly up to 57.5 µM
Inconclusive results are not listed. The source made the active and inactive calls. Calls follow the shape of the dose curve; as a rule, active = well fitted cell-killing curve with a large enough effect; inconclusive = small, poorly fitted or top-dose-only effect, or effect the other way; inactive = flat fitted curve, though single readings scatter.
endpoint name: activity change, negative = cytotoxicity

# count of solved cases: 5
CC(=O)OCC(Cc1ccccc1)NC(=O)C(Cc1ccccc1)NC(=O)c1ccccc1 (stereo not drawn); inactive
C=C1CCC2[C@@](C)(C(=O)O)CCC[C@@]2(C)[C@@H]1CCc1ccoc1 (stereo partly drawn); inactive
C/C=C1/C[N+](C)([O-])C2Cc3c([nH]c4ccccc34)C(=O)CC1C2C(=O)OC (stereo not drawn); inactive
C=C1CCC2[C@](C)(CO)CCC[C@@]2(C)[C@@H]1CCC1=CCOC1=O (stereo partly drawn); inactive
O=C(OCc1ccccc1O[C@@H]1O[C@H](CO)[C@@H](O)[C@H](O)[C@H]1O)C1(O)C=CCCC1O (stereo partly drawn); inactive

Request: Please provide the recorded activity change, negative = cytotoxicity for C/C=C(\C)C1C(C)=CC2CCC(OS(=O)(=O)O)C(C)C2C1/C=C/C=C/C(=O)O (stereo not drawn) , tested on JEG-3.
Result: inactive

Request: Please provide the recorded activity change, negative = cytotoxicity for COc1cc2c(c(OC)c1O)C(c1ccc(O)cc1)C1C(=O)OC3C(COC(=O)C1=C2)OC(CO)(OC1OC(COC(=O)/C=C/c2ccc(OC4OC(C)C(O)C(O)C4O)cc2)C(O)C(O)C1O)C3O (stereo not drawn) , tested on JEG-3.
Result: 8.95% [at 11.6 µM] (inactive)

Request: Please provide the recorded activity change, negative = cytotoxicity for CC1(C)CC[C@]2(C(=O)O)CC[C@]3(C)C(=CCC4[C@@]5(C)C[C@@H](O)[C@H](O)[C@@](C)(CO)C5[C@H](O)C[C@]43C)[C@@H]2C1 (stereo partly drawn) , tested on JEG-3.
Result: inactive

###

System: HaCat
Assay: Cytotoxic Profiling of Annotated Libraries Using Quantitative High-Throughput Screening (AID 1296008); also: % is scaled to controls: 0 for no effect and ±100 for the full control effect; nearly all actives have a fitted effect of over 60% in size
Conditions: Five cell lines viability, CellTiter-Glo ATP luminescence, 48-72 h; hits give low values
Results filed as inconclusive are left out. The source made the active and inactive calls. The call rests on the fitted dose curve; in most records, active means well fitted inhibition curve with a large enough effect; inconclusive means small, poorly fitted or top-dose-only effect; inactive means flat fitted curve, though single readings scatter.
endpoint name: max response

Request: Please provide the recorded max response for C=C1CCC2C(C)(C)CC(O)CC2(C)C1CCC(C)CCOC(=O)CCC(=O)O (configuration not stated) , tested on HaCat.
Result: -1.5% (inactive)

Request: Please provide the recorded max response for `C=Cc1cc2oc(-c3ccc(O)c(F)c3)nc2cc1O` , tested on HaCat.
Result: -11% (inactive)

Request: Please provide the recorded max response for `COc1cc(Cc2cnc(N)nc2N)c(C(C)C)cc1OC` , tested on HaCat.
Result: -0.359% (inactive)

Request: Please provide the recorded max response for C[C@@H]1O[C@@H](O[C@H]2[C@H](OC(=O)[C@]34CCC(C)(C)C[C@H]3C3=CCC5[C@@]6(C)C[C@@H](O)[C@@H](O[C@@H]7O[C@H](CO)[C@@H](O)[C@H](O)[C@H]7O)[C@@](C)(CO)C6[C@H](O)C[C@@]5(C)[C@]3(C)CC4)OC[C@H](O)[C@@H]2O)[C@H](O)[C@H](O[C@@H]2OC[C@](O)(CO)[C@H]2O)[C@H]1O[C@@H]1OC[C@@H](O)[C@H](O[C@H]2O[C@H](C)[C@@H](O)[C@H](O)[C@@H]2O)[C@H]1O (some centres not stated) , tested on HaCat.
Result: 2.54% (inactive)

Request: Please provide the recorded max response for CC(=O)OC1(C)CC(O)C2(O)C=COC(OC3OC(CO)C(O)C(O)C3O)C12 (configuration not stated) , tested on HaCat.
Result: 0.0573% (inactive)

Request: Please provide the recorded max response for C=C1CC23CC1CCC2C12OC(=O)C(C)(C(O)C(O)C1O)C2C3C(=O)O (configuration not stated) , tested on HaCat.
Result: 2.72% (inactive)

Request: Please provide the recorded max response for `O=C(O)[C@H](Cc1ccccc1)Oc1ccc(-c2ccccc2)cc1` , tested on HaCat.
Result: -11.4% (inactive)

###

Test system: NIH3T3
Test: qHTS assay to identify novel small-molecules to repurpose for Merkel cell carcinoma treatment (AID 1296009); also: nearly all actives have a fitted effect of over 60% in size
Details: MCC and control cell lines, CellTiter-Glo viability, 72 h; at 44.8 µM (top of the series) unless noted
Results filed as inconclusive are left out. Active and inactive are the calls of the source. Calls follow the shape of the dose curve; as a rule, active = well fitted inhibition curve with a large enough effect; inconclusive = small, poorly fitted or top-dose-only effect; inactive = flat fitted curve, though single readings scatter.
endpoint name: outcome

# count of solved cases: 5
COc1cccc(C)c1C(=O)O[C@@H]1C[C@H](O[C@H]2[C@H](O)C[C@H](O[C@@H]3CCC[C@H]4[C@H]3C=C[C@@H]3CCCC/C=C/[C@H]5C=C(C(=O)O)[C@@H](C)C[C@@]56OC(=O)C(=C6O)OC(=O)[C@@]34C)O[C@@H]2C)O[C@H](C)[C@H]1O; inactive [at 9.27 µM]
CCN=C1N[C@@H]2[C@@H](O)[C@H](O)[C@@H](CO)O[C@@H]2S1; inactive
CC1CC(=O)C2C(O)(C1)CC(O)C13OC1c1c(O)cccc1C(=O)C23O (configuration not stated); inactive
O=C(/C=C/C=C/c1ccc2c(c1)OCO2)N1CCCCC1; inactive
Cc1ccccc1-n1nc(-c2c(-c3ccc(F)cc3)nn3c2NC[C@@H](CO)C3)ccc1=O; inactive

Request: Please provide the recorded outcome for `O=C(O)Cc1cn([C@@H]2OC[C@@H](O[C@@H]3O[C@H](CO)[C@@H](O)[C@H](O)[C@H]3O)[C@H](O)[C@H]2O[C@@H]2O[C@H](CO)[C@@H](O)[C@H](O)[C@H]2O)c2ccccc12` , tested on NIH3T3.
Result: inactive [at 17.4 µM]

Request: Please provide the recorded outcome for `CCOC(=O)c1ccc(NC2CCCCC2)c(N)c1` , tested on NIH3T3.
Result: inactive

Request: Please provide the recorded outcome for `C/C=C(\C)C(=O)OC[C@H]1O[C@@H](O[C@H]2[C@@H](O[C@H]3O[C@H](COC(=O)/C(C)=C/C)[C@@H](O)[C@H](O)[C@H]3O[C@@H]3O[C@H](COC(=O)/C(C)=C/C)[C@@H](O)[C@H](OC(=O)/C(C)=C/C)[C@H]3O)O[C@H](COC(=O)/C(C)=C/C)[C@@H](O)[C@@H]2O)[C@H](O)[C@@H](O)[C@@H]1O` , tested on NIH3T3.
Result: inactive [at 9.27 µM]

###

System: Zika virus NS2B-NS3 protease (linked construct)
Assay: Primary screen NINDS Rhodamine qHTS for Zika virus inhibitors (AID 1347160); also: nearly all actives have a fitted effect of over 55% in size
Settings: purified NS2B-NS3 protease, Rhodamine110 substrate fluorescence; series mostly up to 33.1 µM
Inconclusive results are not listed. Active and inactive are the calls of the source. The call rests on the fitted dose curve; in most records, active means well fitted inhibition curve with a large enough effect; inconclusive means small, poorly fitted or top-dose-only effect; inactive means no such curve, though single readings can be large or run the other way.
endpoint name: outcome

# count of solved cases: 4
CC(C)(O)c1ccc2c(c1)C(=O)C[C@H]1[C@](C)(C(=O)O)CCC[C@]21C; inactive
COc1ccc(O[C@@H]2O[C@H](CO)[C@@H](O)[C@H](O)[C@H]2O)cc1OC; inactive
C=CC1(C)CC2CCC3C(C)(C(=O)O)CCCC3(C)C2=CC1=O (stereo unspecified); inactive
C=CC(C)(O)CC/C=C(\C)C1CC=C(C)C(=O)O1 (stereo unspecified); inactive

Request: Which outcome reading was recorded for the compound `CC[C@@H](C)[C@H](N)C(=O)N1Cc2ccccc2C1` ?
Result: inactive

Request: Which outcome reading was recorded for the compound C[C@]1(OC(=O)/C=C/c2ccc(O)cc2)C[C@@H](O)[C@]2(O)C=CO[C@@H](O[C@@H]3O[C@H](CO)[C@@H](O)[C@H](O)[C@H]3O)C12 (stereo partly specified) ?
Result: inactive

Request: Which outcome reading was recorded for the compound O=C(C1OC1/C=C/c1ccc2c(c1)OCO2)N1CCCCC1 (stereo unspecified) ?
Result: inactive

Request: Which outcome reading was recorded for the compound `C[C@@H]1O[C@@H](O[C@H]2[C@@H]3C=CO[C@@H](O[C@@H]4O[C@H](CO)[C@@H](O)[C@H](O)[C@H]4O)[C@@H]3[C@@]3(CO)O[C@@H]23)[C@H](O)[C@H](OC(=O)/C=C/c2ccc(O)cc2)[C@H]1OC(=O)/C=C/c1ccc(O)cc1` ?
Result: inactive

Request: Which outcome reading was recorded for the compound CSCC1OC(n2cnc3c(=O)[nH]cnc32)C(O)C1O (stereo unspecified) ?
Result: inactive

Request: Which outcome reading was recorded for the compound `C/C=C(\C)C(=O)OC[C@H]1O[C@H](O[C@H]2O[C@H](CO)[C@@H](O)[C@H](O)[C@H]2O[C@@H]2O[C@H](CO)[C@@H](O)[C@H](O)[C@H]2O)[C@H](O[C@@H]2O[C@H](CO)[C@@H](O)[C@H](O)[C@H]2O)[C@@H](O)[C@@H]1O` ?
Result: inactive

Request: Which outcome reading was recorded for the compound CC1OC(OC2C(OC3C(O[C@H]4CC[C@@]5(C)C(CC[C@]6(C)C5C(=O)CC5=C7CC(C)(C)CC(O)[C@]7(C)CC[C@]56C)C4(C)C)OC(C(=O)O)C(O)C3O)OCC(O)C2O)C(O)C(O)C1O (stereo partly specified) ?
Result: inactive
